List of yeast fitness (ln) values.
B1: tRNA (parent)
chain: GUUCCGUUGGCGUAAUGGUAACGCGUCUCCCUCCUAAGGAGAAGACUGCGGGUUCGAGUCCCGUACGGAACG

Variants of: B1
Test: yeast fitness, log relative to wild type (ln ratio); higher = fitter; tRNA-Arg(CCU), competitive growth, 37 C, 1 M NaCl
reported endpoint: yeast fitness (ln)

monomer_sequence=AGUCCAUUGGCGUAAUGGUAACGCGUCUCCCUCCUAAGGAGAAGACUGCGGGUUCGAGUCCCGUAUGGAGCG reported_endpoint="yeast fitness (ln)" quantitative_readout=-0.142
monomer_sequence=AGUCCAUUGGCGUAAUGGUAACGCGUCUCCCUCCUAAGGAGACGAUUGCGGGUUCGAGUCCCGUAUGGAACG reported_endpoint="yeast fitness (ln)" quantitative_readout=-0.23
monomer_sequence=GCUCCGUUGGCGUAAUGGUAACGCGUUUCCCUCCUAAGGAGACGAUUGCGGGUUCGAGUCCCGUAUGGGUUG reported_endpoint="yeast fitness (ln)" quantitative_readout=-0.46
monomer_sequence=AGUCCAUUGGCGUAAUGGUAACGCGUUUCCCUCCUAAGGAGACGAUUGCGGGUUCGAGUCCCGUAUGGAGUG reported_endpoint="yeast fitness (ln)" quantitative_readout=-0.286
monomer_sequence=ACUCCUUUGGCGUAAUGGUAACGCGUUUCCCUCCUAAGGAGAAGAUUGCGGGUUCGAGUCCCGUAUGGAUUG reported_endpoint="yeast fitness (ln)" quantitative_readout=-0.284
monomer_sequence=AGUCCAUUGGCGUAAUGGUAACGCGUCUCCCUCCUAAGGAGAAGAUUGCGGGUUCGAGUCCCGUAUGGAUUG reported_endpoint="yeast fitness (ln)" quantitative_readout=-0.00784
monomer_sequence=ACUCCAUUGGCGUAAUGGUAACGCGUCUCCCUCCUAAGGAGAAGAUUGCGGGUUCGAGUCCCGUACGGAUUG reported_endpoint="yeast fitness (ln)" quantitative_readout=-0.00949
monomer_sequence=GUUCCAUUGGCGUAAUGGUAACGCGUCUCCCUCCUAAGGAGACGACUGCGGGUUCGAGUCCCGUAUGGAAUG reported_endpoint="yeast fitness (ln)" quantitative_readout=-0.335
monomer_sequence=GGUCCGUUGGCGUAAUGGUAACGCGUCUCCCUCCUAAGGAGACGACUGCGGGUUCGAGUCCCGUAUGGGUUG reported_endpoint="yeast fitness (ln)" quantitative_readout=-0.468
monomer_sequence=GCUCCAUUGGCGUAAUGGUAACGCGUCUCCCUCCUAAGGAGACGAUUGCGGGUUCGAGUCCCGUAUGGGAUG reported_endpoint="yeast fitness (ln)" quantitative_readout=-0.332
monomer_sequence=GCUCCAUUGGCGUAAUGGUAACGCGUUUCCCUCCUAAGGAGAAGAUUGCGGGUUCGAGUCCCGUACGGAAUG reported_endpoint="yeast fitness (ln)" quantitative_readout=-0.119
